Reported Dmax values for the following compounds.
Molecular target: SMARCA2 (Homo sapiens)
Assay: MSD SMARCA2 degradation in NCI-H1299 cell line (24 h)
Format: cell-based
Parameters: HC: NCI-H1299 cells treated with DMSO; host or cells: NCI-H1299
Settings: NCI-H1299, NCI-H1299 cells
Procedure: Example 32. MSD SMARCA2 Degradation in […] Cell Line Cell Culture: Cells were cultured in exponential growth phase. Compound Preparation and Treatment: NCI-H1299 cells were seeded into the 96-well plate at 4.0*10^4 cells per 100 ul per well. […] MSD Procedure: The MSD plate was coated with 40 ul cell lysate and incubated at 4° C. overnight. […] MSD plate was washed 3 times with 150 ul 1×TBST per well and 2×MSD reading buffer was added, 150 ul per well, and diluted from 4× with water. […]

Consider the following illustrative entries.
[[record]]
compound = "O=C1CCC(n2c(=O)n(CCCCCCCc3cn(Cc4cccc(N5C[C@H]6C[C@@H]5CN6/C=C/C(=O)c5ccccc5O)n4)nn3)c3ccccc32)C(=O)N1 (stereo partly drawn)"
reading = "< 50%"

[[record]]
compound = "Cn1c(=O)n(C2CCC(=O)NC2=O)c2ccc(CCCCCN3CCCC(n4cc(-c5cc(-c6ccccc6O)nnc5N)cn4)C3)cc21 (stereo not drawn)"
reading = "50 to 70%"


Now consider a different compound.
Ask: Please look up its Dmax: "Cc1ncsc1-c1ccc(CNC(=O)[C@@H]2C[C@@H](O)CN2C(=O)[C@@H](NC(=O)CCCN2CCC(n3cc(-c4cc(-c5ccccc5O)nnc4N)cn3)CC2)C(C)(C)C)cc1"
Result: < 50%

====

Molecular target: SMARCA4 (Homo sapiens)
Construct: SMARCA2 and SMARCA4 protein degradation in MV4-11 cells; endogenous in cells; host or cells: MV4-11
Sequence (P51532 whole entry): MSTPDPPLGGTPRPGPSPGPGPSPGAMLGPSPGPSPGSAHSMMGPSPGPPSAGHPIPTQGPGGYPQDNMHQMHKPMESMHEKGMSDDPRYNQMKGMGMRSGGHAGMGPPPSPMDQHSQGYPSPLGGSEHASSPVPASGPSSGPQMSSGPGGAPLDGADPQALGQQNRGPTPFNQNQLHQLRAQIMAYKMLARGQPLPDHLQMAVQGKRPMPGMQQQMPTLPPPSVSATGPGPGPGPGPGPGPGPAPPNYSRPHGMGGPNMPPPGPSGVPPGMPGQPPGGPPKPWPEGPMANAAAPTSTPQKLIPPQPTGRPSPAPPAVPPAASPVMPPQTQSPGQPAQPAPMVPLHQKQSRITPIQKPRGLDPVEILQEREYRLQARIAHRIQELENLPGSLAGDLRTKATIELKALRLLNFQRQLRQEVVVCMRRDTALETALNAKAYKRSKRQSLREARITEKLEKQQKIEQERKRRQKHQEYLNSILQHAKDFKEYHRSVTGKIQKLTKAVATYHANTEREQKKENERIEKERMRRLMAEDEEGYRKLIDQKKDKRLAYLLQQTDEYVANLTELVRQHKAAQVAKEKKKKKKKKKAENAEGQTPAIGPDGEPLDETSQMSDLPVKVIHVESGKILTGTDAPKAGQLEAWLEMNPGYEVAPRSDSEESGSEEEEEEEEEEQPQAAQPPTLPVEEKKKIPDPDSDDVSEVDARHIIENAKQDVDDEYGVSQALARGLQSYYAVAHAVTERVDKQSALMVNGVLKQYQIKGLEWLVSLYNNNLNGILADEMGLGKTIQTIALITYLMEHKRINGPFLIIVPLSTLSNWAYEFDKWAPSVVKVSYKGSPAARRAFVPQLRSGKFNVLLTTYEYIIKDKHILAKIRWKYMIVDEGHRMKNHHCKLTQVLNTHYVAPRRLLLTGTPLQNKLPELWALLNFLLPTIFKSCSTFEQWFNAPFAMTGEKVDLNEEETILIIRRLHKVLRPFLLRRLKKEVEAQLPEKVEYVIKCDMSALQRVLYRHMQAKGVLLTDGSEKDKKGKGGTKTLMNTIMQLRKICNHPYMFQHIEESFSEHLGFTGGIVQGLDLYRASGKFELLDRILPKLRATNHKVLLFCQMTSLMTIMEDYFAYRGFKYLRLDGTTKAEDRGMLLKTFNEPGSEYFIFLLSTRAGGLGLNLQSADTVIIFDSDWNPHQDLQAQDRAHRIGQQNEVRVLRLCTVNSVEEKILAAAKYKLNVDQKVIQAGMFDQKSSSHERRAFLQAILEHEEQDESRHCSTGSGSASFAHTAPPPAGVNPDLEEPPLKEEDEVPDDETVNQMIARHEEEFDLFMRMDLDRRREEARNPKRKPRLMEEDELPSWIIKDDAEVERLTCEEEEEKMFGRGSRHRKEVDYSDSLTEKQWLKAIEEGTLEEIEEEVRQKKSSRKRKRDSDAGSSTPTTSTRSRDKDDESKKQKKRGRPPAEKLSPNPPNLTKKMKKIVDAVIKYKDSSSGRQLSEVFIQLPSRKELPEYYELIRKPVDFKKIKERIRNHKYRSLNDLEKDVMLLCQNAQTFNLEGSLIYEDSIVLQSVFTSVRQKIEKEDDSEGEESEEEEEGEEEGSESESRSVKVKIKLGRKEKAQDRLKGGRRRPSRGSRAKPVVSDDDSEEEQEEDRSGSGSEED
Test: SMARCA4 Western blot MV4-11 degradation
Format: cell-based
Details: MV4-11, MV4-11 cells, 24 h, read-out: SMARCA4 WB MV411 degradation 24 h: Average Dmax %
measuredParameter: Dmax

Consider the following illustrative entries.
[[record]]
compound = "Cc1ncsc1-c1ccc(CNC(=O)[C@@H]2C[C@@H](O)CN2C(=O)[C@@H](NC(=O)c2ccc(CCCCCN3CCC(Cn4cc(-c5cc(-c6ccccc6O)nnc5N)cn4)CC3)cc2)C(C)(C)C)cc1"
reading = "> 90%"

[[record]]
compound = "Cc1ncsc1-c1ccc(CNC(=O)[C@@H]2C[C@@H](O)CN2C(=O)[C@@H](NC(=O)CCCN2CCC(Cn3cc(-c4cc(-c5ccccc5O)nnc4N)cn3)CC2)C(C)(C)C)cc1"
reading = "< 50%"

[[record]]
compound = "Cc1ncsc1-c1ccc(CNC(=O)[C@@H]2C[C@@H](O)CN2C(=O)[C@@H](NC(=O)CC2CC(N3CCC(c4cnc(N5C6CCC5CN(c5cc(-c7ccccc7O)nnc5N)C6)nc4)CC3)C2)C(C)(C)C)cc1 (stereo partly shown)"
reading = "< 50%"

[[record]]
compound = "Nc1nnc(-c2ccccc2O)cc1N1CC2CCC(C1)N2c1ncc(C2CCN(CCCNC(=O)COc3ccc4c(c3)CCCN4C(=O)CCl)CC2)cn1"
reading = "> 90%"

[[record]]
compound = "Cc1ncsc1-c1ccc(CNC(=O)[C@@H]2C[C@@H](O)CN2C(=O)[C@@H](NC(=O)CN2CCN([C@H]3CC[C@@H](c4cnc(N5C6CCC5CN(c5cc(-c7ccccc7O)nnc5N)C6)nc4)CC3)CC2)C(C)(C)C)cc1 (single isomer, unassigned)"
reading = "> 90%"

[[record]]
compound = "Cc1ncsc1-c1ccc(CNC(=O)[C@@H]2C[C@@H](O)CN2C(=O)[C@@H](NC(=O)CN2CCN(Cc3ccc(-c4cc(-c5ccccc5O)nnc4N)cc3)CC2)C(C)(C)C)cc1"
reading = "< 50%"

[[record]]
compound = "Cc1ncsc1-c1ccc(CNC(=O)[C@@H]2C[C@@H](O)CN2C(=O)[C@@H](NC(=O)[C@H]2C[C@@H](N3CCC(n4cc(-c5cc(-c6ccccc6O)nnc5N)cn4)CC3)C2)C(C)(C)C)cc1"
reading = "> 90%"

[[record]]
compound = "CC(=O)Nc1cc(-c2scnc2C)ccc1CNC(=O)[C@@H]1C[C@@H](O)CN1C(=O)[C@@H](NC(=O)[C@H]1CC[C@H](c2cnc(N3C4CCC3CN(c3cc(-c5ccccc5O)nnc3N)C4)nc2)CC1)C(C)(C)C"
reading = "> 90%"

[[record]]
compound = "Cn1c(=O)n(C2CCC(=O)NC2=O)c2ccc(CCCCCCCCCNC(=O)c3cccc(C#Cc4cc(NC(=O)Nc5ccnc(Cl)c5)ccn4)c3)cc21 (stereo not shown)"
reading = "< 50%"


Ask: Test system SMARCA4 (Homo sapiens); read-out Dmax; what value for "Cc1ncsc1-c1ccc(CNC(=O)[C@@H]2C[C@@H](O)CN2C(=O)[C@@H](NC(=O)CCCCN2CCC[C@@H](Cn3cc(-c4cc(-c5ccccc5O)nnc4N)cn3)C2)C(C)(C)C)cc1" ?
Result: 50 to 70%

====

Target: SMARCA2 (Homo sapiens, UniProt P51531)
Sequence (P51531 whole entry): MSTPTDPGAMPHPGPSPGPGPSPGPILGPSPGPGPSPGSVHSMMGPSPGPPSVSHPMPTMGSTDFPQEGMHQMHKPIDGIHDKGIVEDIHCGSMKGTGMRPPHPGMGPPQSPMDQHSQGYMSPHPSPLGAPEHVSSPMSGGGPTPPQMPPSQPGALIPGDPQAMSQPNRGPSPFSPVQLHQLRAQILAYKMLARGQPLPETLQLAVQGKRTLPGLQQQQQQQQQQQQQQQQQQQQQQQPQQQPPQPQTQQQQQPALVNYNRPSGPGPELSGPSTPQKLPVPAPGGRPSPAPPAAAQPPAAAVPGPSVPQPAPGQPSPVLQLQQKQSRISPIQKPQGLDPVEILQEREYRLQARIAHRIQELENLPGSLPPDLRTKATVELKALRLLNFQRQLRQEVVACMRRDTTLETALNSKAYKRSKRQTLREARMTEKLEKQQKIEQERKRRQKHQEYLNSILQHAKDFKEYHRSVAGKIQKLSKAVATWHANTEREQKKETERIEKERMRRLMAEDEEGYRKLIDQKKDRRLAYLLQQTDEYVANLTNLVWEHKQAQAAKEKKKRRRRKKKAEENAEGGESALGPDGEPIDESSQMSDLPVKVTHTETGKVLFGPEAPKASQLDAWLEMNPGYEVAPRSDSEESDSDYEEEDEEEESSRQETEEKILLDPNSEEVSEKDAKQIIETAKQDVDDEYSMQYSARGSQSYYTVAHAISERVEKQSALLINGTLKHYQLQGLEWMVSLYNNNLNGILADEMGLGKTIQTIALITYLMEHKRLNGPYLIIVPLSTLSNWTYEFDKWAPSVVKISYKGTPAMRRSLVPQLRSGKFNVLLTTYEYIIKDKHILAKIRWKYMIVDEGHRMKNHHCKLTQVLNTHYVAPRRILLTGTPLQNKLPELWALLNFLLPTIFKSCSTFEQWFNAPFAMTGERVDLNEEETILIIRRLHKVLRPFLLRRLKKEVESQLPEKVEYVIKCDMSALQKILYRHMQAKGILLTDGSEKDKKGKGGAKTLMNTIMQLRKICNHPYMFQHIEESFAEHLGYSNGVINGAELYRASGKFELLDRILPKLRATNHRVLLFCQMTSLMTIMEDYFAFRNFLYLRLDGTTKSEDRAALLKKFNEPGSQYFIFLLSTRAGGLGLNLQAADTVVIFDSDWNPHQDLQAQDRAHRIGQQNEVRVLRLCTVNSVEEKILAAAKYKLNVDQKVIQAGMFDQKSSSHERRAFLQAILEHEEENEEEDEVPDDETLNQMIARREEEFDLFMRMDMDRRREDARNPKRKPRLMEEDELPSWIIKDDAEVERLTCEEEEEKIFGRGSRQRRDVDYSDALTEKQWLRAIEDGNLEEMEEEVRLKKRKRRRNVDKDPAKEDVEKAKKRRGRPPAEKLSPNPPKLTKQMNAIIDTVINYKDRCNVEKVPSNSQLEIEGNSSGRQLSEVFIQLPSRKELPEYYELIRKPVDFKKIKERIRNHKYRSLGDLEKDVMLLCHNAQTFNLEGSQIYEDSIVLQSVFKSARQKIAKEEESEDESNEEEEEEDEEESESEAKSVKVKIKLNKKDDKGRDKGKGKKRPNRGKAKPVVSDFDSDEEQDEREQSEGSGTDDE
Experiment: MSD SMARCA2 degradation in NCI-H1299 cell line (24 h)
Assay type: cell-based
Design: HC: NCI-H1299 cells treated with DMSO; host or cells: NCI-H1299
Conditions: NCI-H1299 cells, read-out: SMARCA2 MSD H1299 degradation 24 h: External Abs-DC50
Reported DC50 values for the following compounds.

Consider the following illustrative entries.
[[record]]
compound = "Cc1ncsc1-c1ccc(CNC(=O)[C@@H]2C[C@@H](O)CN2C(=O)[C@@H](NC(=O)CCCCCN2CCCC(n3cc(-c4cc(-c5ccccc5O)nnc4N)cn3)C2)C(C)(C)C)cc1 (stereo partly drawn) [I-456]"
reading = "> 1000 nM"

[[record]]
compound = "Cn1c(=O)n(C2CCC(=O)NC2=O)c2ccc(CCN3CCN(C(=O)c4cnc(N5C6CCC5CN(c5cc(-c7ccccc7O)nnc5N)C6)nc4)CC3)cc21 (stereo not drawn) [I-293]"
reading = "< 100 nM"


Now consider a different compound.
Ask: Please look up its DC50: O=C1CCC(N2C(=O)c3cccc(OCCCc4cn(Cc5cccc(N6C[C@H]7C[C@@H]6CN7/C=C/C(=O)c6ccccc6O)n5)nn4)c3C2=O)C(=O)N1 (stereo partly drawn) [I-36]
Result: > 1000 nM

====

Biological target: SMARCA2 (Homo sapiens, UniProt P51531)
Experiment: MSD SMARCA2 degradation in A549 cell line
Format: cell-based
Settings: A549 cells, 24 h, read-out: SMARCA2 MSD A549 degradation 24 h: Average external-Abs DC50
Reported DC50 values for the following molecules.

Consider the following illustrative entries.
[[record]]
molecule = "CN(Cc1cccc(C#Cc2cc(NC(=O)Nc3cc(F)ncc3CO)ccn2)c1)C1CCN(C(=O)c2cccc3c2n(C)c(=O)n3C2CCC(=O)NC2=O)CC1 (stereo not shown) [I-320]"
testedsystem = "SMARCA2 (Homo sapiens, UniProt P51531)"
measuredparameter = "DC50"
reading = "> 1000 nM"

[[record]]
molecule = "Cc1ncsc1-c1ccc(CNC(=O)[C@@H]2C[C@@H](O)CN2C(=O)[C@@H](NC(=O)C[C@H]2CC[C@@H](c3nccc(N4C5CCC4CN(c4cc(-c6ccccc6O)nnc4N)C5)n3)CC2)C(C)(C)C)cc1 [I-365]"
testedsystem = "SMARCA2 (Homo sapiens, UniProt P51531)"
measuredparameter = "DC50"
reading = "100 to 500 nM"

[[record]]
molecule = "Cc1ncsc1-c1ccc(CNC(=O)[C@@H]2C[C@@H](O)CN2C(=O)[C@@H](NC(=O)C[C@H]2CC[C@H](N3CCC(n4cc(-c5cc(-c6ccccc6O)nnc5N)cn4)CC3)CC2)C(C)(C)C)cc1 [I-328]"
testedsystem = "SMARCA2 (Homo sapiens, UniProt P51531)"
measuredparameter = "DC50"
reading = "100 to 500 nM"

[[record]]
molecule = "Cc1ncsc1-c1ccc(CNC(=O)[C@@H]2C[C@@H](O)CN2C(=O)[C@@H](NC(=O)C[C@H]2C[C@@H](N3CCC(c4cnc(N5C6CCC5CN(c5cc(-c7ccccc7O)nnc5N)C6)nc4)CC3)C2)C(C)(C)C)cc1 [I-392]"
testedsystem = "SMARCA2 (Homo sapiens, UniProt P51531)"
measuredparameter = "DC50"
reading = "100 to 500 nM"

[[record]]
molecule = "Cc1ncsc1-c1ccc(CNC(=O)[C@@H]2C[C@@H](O)CN2C(=O)[C@@H](NC(=O)C(=O)N2CCC(c3cnc(N4C5CCC4CN(c4cc(-c6ccccc6O)nnc4N)C5)nc3)CC2)C(C)(C)C)cc1 [I-344]"
testedsystem = "SMARCA2 (Homo sapiens, UniProt P51531)"
measuredparameter = "DC50"
reading = "> 1000 nM"

[[record]]
molecule = "Cc1ncsc1-c1ccc(CNC(=O)[C@@H]2C[C@@H](O)CN2C(=O)[C@@H](NC(=O)CN2CCC(c3cccc(C#Cc4cc(NC(=O)Nc5cc(F)ncc5CO)ccn4)c3)CC2)C(C)(C)C)cc1 [I-498]"
testedsystem = "SMARCA2 (Homo sapiens, UniProt P51531)"
measuredparameter = "DC50"
reading = "> 1000 nM"

[[record]]
molecule = "Cc1ncsc1-c1ccc(CNC(=O)[C@@H]2C[C@@H](O)CN2C(=O)[C@@H](NC(=O)CCN2CCC(Cn3cc(-c4cc(-c5ccccc5O)nnc4N)cn3)CC2)C(C)(C)C)cc1 [I-466]"
testedsystem = "SMARCA2 (Homo sapiens, UniProt P51531)"
measuredparameter = "DC50"
reading = "> 1000 nM"

[[record]]
molecule = "Nc1nnc(-c2ccccc2O)cc1N1CC2CCC(C1)N2c1ncc(C2CCN(CCCCCCCCOc3ccc(Oc4ccc(N(Cc5ccccc5)C(=O)CCl)cc4)cc3)CC2)cn1 [I-532]"
testedsystem = "SMARCA2 (Homo sapiens, UniProt P51531)"
measuredparameter = "DC50"
reading = "> 1000 nM"


Ask: Please look up its DC50: Cn1c(=O)n(C2CCC(=O)NC2=O)c2ccc(CCCOCCCCN3CCN(Cc4ccc(C#Cc5cc(NC(=O)Nc6cc(F)ncc6CO)ccn5)cc4)CC3)cc21 (stereo not shown) [I-306]
Result: > 1000 nM

Ask: Please look up its DC50: Cc1ncsc1-c1ccc(CNC(=O)[C@@H]2C[C@@H](O)CN2C(=O)[C@@H](NC(=O)[C@H]2CC[C@H](CCCCCN3CCC(Cn4cc(-c5cc(-c6ccccc6O)nnc5N)cn4)CC3)CC2)C(C)(C)C)cc1 [I-378]
Result: 100 to 500 nM
